test system: SK-MEL-2; test: NCI tumour cell line growth inhibition, 48 h
Calls of active or inactive are those of the source. No stated cut-off is given here; in the data, active = GI50 up to about 1.1 µM and inactive = higher.
GI50 values for the compounds below.

{"Compound": "CCO[C@@]1(COCc2ccccc2)OC(=O)C[C@@H]1N1C(=O)OC[C@@H]1c1ccccc1", "GI50": "> 100 µM (inactive)"}
{"Compound": "CC1OC(O[C@H]2/C=C/C=C/C=C/C=C/C=C/C=C/C=C/[C@H](C)[C@@H](O)[C@@H](C)[C@H](C)OC(=O)C[C@H](O)C[C@H](O)CC[C@@H](O)[C@H](O)C[C@H](O)C[C@]3(O)C[C@H](O)[C@@H](C(=O)O)[C@H](C2)O3)C(O)C(N)C1O (stereo partly drawn)", "GI50": "36.7 µM (inactive)"}
{"Compound": "CN1C(=O)C(C(=O)Nc2ccccn2)C2C[C@@]1(C)Oc1ccccc12 (stereo partly drawn)", "GI50": "> 100 µM (inactive)"}
{"Compound": "CC(CSc1nc2c(c(=N)n1-c1ccccc1)c(=S)n(-c1ccccc1)c(=S)n2-c1ccccc1)CN(C)C (stereo not drawn)", "GI50": "2.45 µM (inactive)"}
{"Compound": "CN1C(=O)[C@H](c2c[nH]c3ccccc23)[C@H](c2c[nH]c3ccccc23)C1=O", "GI50": "22.3 µM (inactive)"}
{"Compound": "O=Cc1c2c(cc3c1CC1(C3)Cc3cc4c(c(C=O)c3C1)CCC4)CCC2", "GI50": "21.3 µM (inactive)"}
{"Compound": "O=C1CCc2c(sc3ncnc(Nc4cccc(Br)c4)c23)C1", "GI50": "6.89 µM (inactive)"}
{"Compound": "OC(C1CO1)C(O)C1CO1 (stereo not drawn)", "GI50": "61.1 µM (inactive)"}
{"Compound": "COc1cccc2c1C1=CC(=O)CCC1C(C)(C)O2 (stereo not drawn)", "GI50": "> 100 µM (inactive)"}
{"Compound": "NC(=O)CC1OC(=O)Cc2cc3c(c(O)c21)C(=O)c1c(O)cccc1C3=O (stereo not drawn)", "GI50": "> 100 µM (inactive)"}
{"Compound": "O=C1CSC(c2cccc(Cl)c2)N1c1c(O)c(Cl)cc(Br)c1Cl (stereo not drawn)", "GI50": "14.9 µM (inactive)"}
{"Compound": "CN(C)C(=O)N1N[C@H](c2ccccc2)[C@@H]1c1ccccc1", "GI50": "> 100 µM (inactive)"}
{"Compound": "Cc1ccc(/N=N/C(C(=O)c2ccccc2)C(=O)c2ccccc2)cc1", "GI50": "19.5 µM (inactive)"}
{"Compound": "CC1=CCC23C(C1)OC(Br)(C=CC2(C)O)C3(C)C (stereo not drawn)", "GI50": "> 100 µM (inactive)"}
{"Compound": "COC(=O)NCCc1n[nH]c2c1C(=O)C=C(OC)C2=O", "GI50": "54.2 µM (inactive)"}
{"Compound": "CC1N(O)C(c2ccccc2)C(c2ccccc2)=[N+]1[O-] (stereo not drawn)", "GI50": "> 100 µM (inactive)"}
{"Compound": "COC(=O)[C@@H]1C=C[C@H](OC2OC(COC(C)=O)C(OC(C)=O)C(OC(C)=O)C2OC(C)=O)n2c(=O)n(-c3ccccc3)c(=O)n21 (stereo partly drawn)", "GI50": "2.25 µM (inactive)"}
{"Compound": "O=C1NC(O)CCN1C1OC(CO)C(O)C1O (stereo not drawn)", "GI50": "> 158 µM (inactive)"}
{"Compound": "COc1ccccc1N1C(=O)/C(=C\\c2cc(OC)c(OC)c(OC)c2)SC1c1ccccc1 (stereo not drawn)", "GI50": "68.4 µM (inactive)"}
{"Compound": "COc1ccc(C(=C(C#N)C#N)c2ccc(OC)cc2)cc1", "GI50": "> 100 µM (inactive)"}
{"Compound": "O=C=NCCCCCCN1C(=O)N2C(c3ccccc3)N(CCCCCCN=C=O)C(=O)N2C1c1ccccc1 (stereo not drawn)", "GI50": "> 100 µM (inactive)"}
{"Compound": "COc1cc(Cl)c(CC(=O)c2c[nH]c3ccccc23)cc1OC", "GI50": "16.7 µM (inactive)"}
{"Compound": "N#Cc1ccccc1NC(=O)/C(=N\\Nc1ccc([N+](=O)[O-])cc1)C1C(=O)NC(=O)NC1=O", "GI50": "> 100 µM (inactive)"}
